B1: PKD2L1 (parent)
chain: SGPEAARAGGWVSGEEFYMLTRRV

# Variants of: B1
# ASSAY COMMENT: protein stability index of a GFP-peptide fusion (GPS, HEK-293T) (PSI 1-6); higher = more stable;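 also: lentivirally expressed fusions sorted by FACS into six bins by GFP to DsRed ratio, PSI derived from sequencing read proportions per bin multiplied by bin number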
# EXPERIMENTAL CONDITIONS: c terminus: a fixed tail appended
PARAMETER MEASURED: protein stability index
Form: value (number only, do not type unit).

Look up protein stability index of "SGPEAARAGGWVSGEPFYMLTRRV" and report it.
1.78

Look up protein stability index of "SGPEAARAGGWVSGEEFYMSTRRV" and report it.
3.61

Look up protein stability index of "SGPEAARAGGWVYGEEFYMLTRRV" and report it.
2.07

Look up protein stability index of "SGPEAARAGGWVSGEEFYMLRRRV" and report it.
3.1

Look up protein stability index of "SGPEAARAGGWVSGEEFYMDTRRV" and report it.
4.19

Look up protein stability index of "SGPEAARCGGWVSGEEFYMLTRRV" and report it.
1.97

Look up protein stability index of "SGPEAYRAGGWVSGEEFYMLTRRV" and report it.
2.4

Look up protein stability index of "SGPEAARAGGWVSGEEFAMLTRRV" and report it.
3.38

Look up protein stability index of "SGPEAGRAGGWVSGEEFYMLTRRV" and report it.
3.16

Look up protein stability index of "SGPLAARAGGWVSGEEFYMLTRRV" and report it.
1.6

Look up protein stability index of "SGPEAARAGGWVSGEEFQMLTRRV" and report it.
3.03

Look up protein stability index of "SGPEAARAGGWGSGEEFYMLTRRV" and report it.
3.15

Look up protein stability index of "SGPEAARAGGWVSEEEFYMLTRRV" and report it.
3.18

Look up protein stability index of "SGPEAAYAGGWVSGEEFYMLTRRV" and report it.
2.31

Look up protein stability index of "AGPEAARAGGWVSGEEFYMLTRRV" and report it.
2.81

Look up protein stability index of "SGPEAARAGGVVSGEEFYMLTRRV" and report it.
3.19

Look up protein stability index of "SGPEAARAGGWCSGEEFYMLTRRV" and report it.
2.46

Look up protein stability index of "SGPEACRAGGWVSGEEFYMLTRRV" and report it.
2.31

Look up protein stability index of "SGPEAARAGGWPSGEEFYMLTRRV" and report it.
2.31

Look up protein stability index of "SGPEAARAGGWVSGSEFYMLTRRV" and report it.
2.1

Look up protein stability index of "SGPEAARAPGWVSGEEFYMLTRRV" and report it.
2.39

Look up protein stability index of "SGPKAARAGGWVSGEEFYMLTRRV" and report it.
1.94
